Target: angiotensin receptors in human synovium (Homo sapiens)
Construct: Human knee synovium was collected at surgery from patients with osteoarthritis or rheumatoid arthritis; from tissue; host or cells: human knee synovium cryostat sections (osteoarthritis, rheumatoid arthritis, chondromalacia patellae)
Sequence (P30556 1-359): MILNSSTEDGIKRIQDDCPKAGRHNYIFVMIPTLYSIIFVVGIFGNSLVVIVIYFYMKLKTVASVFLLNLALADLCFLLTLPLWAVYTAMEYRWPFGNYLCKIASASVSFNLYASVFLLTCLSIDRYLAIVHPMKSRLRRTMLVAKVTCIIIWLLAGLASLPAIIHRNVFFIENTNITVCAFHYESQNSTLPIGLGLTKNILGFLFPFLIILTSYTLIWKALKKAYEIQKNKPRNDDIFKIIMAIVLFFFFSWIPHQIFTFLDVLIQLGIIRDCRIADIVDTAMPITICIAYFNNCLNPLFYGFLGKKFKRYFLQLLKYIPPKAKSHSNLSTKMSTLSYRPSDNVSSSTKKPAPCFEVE
Test: Inhibition of [125I](Sar1, Ile8)AII binding to human synovium, quantitative receptor autoradiography
Details: Ki values, lining cells, osteoarthritic synovium, 0.25 nM [125I](Sar1, Ile8)AII
READOUT_LABEL: Ki

MOLECULE	EXPERIMENTAL_RESULT
Cc1cc(Cn2cnc3c2C[C@@H](C(=O)O)N(C(=O)C(c2ccccc2)c2ccccc2)C3)ccc1N(C)C [PD123319]	> 10 µM

Provenance of the data: patent US5824696A
